Origin of measurements: paper doi:10.1101/2020.05.05.078071v1

measuredTarget: rNaV1.4 (Rattus norvegicus, UniProt P15390, F1579A)
Sequence (P15390 whole entry F1579A): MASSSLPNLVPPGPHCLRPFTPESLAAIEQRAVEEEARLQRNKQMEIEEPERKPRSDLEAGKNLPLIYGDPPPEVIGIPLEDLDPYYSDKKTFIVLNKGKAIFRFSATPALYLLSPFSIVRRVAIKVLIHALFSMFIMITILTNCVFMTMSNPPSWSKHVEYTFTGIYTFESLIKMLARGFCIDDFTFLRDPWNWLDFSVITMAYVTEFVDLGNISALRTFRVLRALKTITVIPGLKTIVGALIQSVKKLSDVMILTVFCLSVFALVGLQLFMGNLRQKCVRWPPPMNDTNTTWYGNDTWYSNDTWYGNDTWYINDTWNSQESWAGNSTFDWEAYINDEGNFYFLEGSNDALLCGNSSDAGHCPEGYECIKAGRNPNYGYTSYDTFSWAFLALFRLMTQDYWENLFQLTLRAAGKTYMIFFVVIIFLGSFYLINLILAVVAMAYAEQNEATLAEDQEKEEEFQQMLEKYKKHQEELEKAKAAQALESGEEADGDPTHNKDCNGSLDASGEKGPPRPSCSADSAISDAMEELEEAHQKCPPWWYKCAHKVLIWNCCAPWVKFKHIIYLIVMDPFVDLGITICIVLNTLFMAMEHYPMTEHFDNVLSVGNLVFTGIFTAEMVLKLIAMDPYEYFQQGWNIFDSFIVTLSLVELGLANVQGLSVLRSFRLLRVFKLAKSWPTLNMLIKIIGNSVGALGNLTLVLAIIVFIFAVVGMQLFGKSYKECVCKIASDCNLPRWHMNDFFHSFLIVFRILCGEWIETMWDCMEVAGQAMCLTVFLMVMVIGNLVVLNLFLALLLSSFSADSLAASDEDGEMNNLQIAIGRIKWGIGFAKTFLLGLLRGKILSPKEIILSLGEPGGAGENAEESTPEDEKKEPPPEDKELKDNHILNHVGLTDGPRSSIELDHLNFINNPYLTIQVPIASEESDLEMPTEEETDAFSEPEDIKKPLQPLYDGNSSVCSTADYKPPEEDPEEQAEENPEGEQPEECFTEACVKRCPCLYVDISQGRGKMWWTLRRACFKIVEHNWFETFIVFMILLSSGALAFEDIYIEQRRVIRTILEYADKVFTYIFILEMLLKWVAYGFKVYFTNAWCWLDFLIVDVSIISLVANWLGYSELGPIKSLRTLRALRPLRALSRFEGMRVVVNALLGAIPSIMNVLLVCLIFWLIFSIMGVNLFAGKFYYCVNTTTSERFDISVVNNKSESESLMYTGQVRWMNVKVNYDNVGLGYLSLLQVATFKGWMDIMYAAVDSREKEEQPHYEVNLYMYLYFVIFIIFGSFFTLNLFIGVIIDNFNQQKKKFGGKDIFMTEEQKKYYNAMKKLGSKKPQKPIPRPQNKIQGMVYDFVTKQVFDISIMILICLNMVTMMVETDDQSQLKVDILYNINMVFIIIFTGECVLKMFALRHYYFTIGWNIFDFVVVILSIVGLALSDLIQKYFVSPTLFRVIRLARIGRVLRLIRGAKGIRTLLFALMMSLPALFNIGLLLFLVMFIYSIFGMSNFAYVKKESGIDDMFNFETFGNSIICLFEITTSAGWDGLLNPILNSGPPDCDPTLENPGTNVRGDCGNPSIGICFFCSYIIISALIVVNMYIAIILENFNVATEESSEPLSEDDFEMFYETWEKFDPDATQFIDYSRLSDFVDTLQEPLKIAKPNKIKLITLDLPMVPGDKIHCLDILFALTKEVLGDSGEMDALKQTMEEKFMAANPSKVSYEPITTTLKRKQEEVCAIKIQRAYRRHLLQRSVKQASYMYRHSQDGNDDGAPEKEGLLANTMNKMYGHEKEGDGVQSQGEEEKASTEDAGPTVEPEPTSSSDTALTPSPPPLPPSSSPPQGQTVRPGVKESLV
protocol: whole-cell patch clamp, three pulse train
property: pIC50
# pIC50: negative log10 of molar concentration; output just the value

Report measured pIC50 on rNaV1.4 (Rattus norvegicus, UniProt P15390, F1579A); entry: Nc1nc2ccc(OC(F)(F)F)cc2s1
3.94

###

measuredTarget: rNaV1.4 (Rattus norvegicus, UniProt P15390)
Sequence (P15390 whole entry): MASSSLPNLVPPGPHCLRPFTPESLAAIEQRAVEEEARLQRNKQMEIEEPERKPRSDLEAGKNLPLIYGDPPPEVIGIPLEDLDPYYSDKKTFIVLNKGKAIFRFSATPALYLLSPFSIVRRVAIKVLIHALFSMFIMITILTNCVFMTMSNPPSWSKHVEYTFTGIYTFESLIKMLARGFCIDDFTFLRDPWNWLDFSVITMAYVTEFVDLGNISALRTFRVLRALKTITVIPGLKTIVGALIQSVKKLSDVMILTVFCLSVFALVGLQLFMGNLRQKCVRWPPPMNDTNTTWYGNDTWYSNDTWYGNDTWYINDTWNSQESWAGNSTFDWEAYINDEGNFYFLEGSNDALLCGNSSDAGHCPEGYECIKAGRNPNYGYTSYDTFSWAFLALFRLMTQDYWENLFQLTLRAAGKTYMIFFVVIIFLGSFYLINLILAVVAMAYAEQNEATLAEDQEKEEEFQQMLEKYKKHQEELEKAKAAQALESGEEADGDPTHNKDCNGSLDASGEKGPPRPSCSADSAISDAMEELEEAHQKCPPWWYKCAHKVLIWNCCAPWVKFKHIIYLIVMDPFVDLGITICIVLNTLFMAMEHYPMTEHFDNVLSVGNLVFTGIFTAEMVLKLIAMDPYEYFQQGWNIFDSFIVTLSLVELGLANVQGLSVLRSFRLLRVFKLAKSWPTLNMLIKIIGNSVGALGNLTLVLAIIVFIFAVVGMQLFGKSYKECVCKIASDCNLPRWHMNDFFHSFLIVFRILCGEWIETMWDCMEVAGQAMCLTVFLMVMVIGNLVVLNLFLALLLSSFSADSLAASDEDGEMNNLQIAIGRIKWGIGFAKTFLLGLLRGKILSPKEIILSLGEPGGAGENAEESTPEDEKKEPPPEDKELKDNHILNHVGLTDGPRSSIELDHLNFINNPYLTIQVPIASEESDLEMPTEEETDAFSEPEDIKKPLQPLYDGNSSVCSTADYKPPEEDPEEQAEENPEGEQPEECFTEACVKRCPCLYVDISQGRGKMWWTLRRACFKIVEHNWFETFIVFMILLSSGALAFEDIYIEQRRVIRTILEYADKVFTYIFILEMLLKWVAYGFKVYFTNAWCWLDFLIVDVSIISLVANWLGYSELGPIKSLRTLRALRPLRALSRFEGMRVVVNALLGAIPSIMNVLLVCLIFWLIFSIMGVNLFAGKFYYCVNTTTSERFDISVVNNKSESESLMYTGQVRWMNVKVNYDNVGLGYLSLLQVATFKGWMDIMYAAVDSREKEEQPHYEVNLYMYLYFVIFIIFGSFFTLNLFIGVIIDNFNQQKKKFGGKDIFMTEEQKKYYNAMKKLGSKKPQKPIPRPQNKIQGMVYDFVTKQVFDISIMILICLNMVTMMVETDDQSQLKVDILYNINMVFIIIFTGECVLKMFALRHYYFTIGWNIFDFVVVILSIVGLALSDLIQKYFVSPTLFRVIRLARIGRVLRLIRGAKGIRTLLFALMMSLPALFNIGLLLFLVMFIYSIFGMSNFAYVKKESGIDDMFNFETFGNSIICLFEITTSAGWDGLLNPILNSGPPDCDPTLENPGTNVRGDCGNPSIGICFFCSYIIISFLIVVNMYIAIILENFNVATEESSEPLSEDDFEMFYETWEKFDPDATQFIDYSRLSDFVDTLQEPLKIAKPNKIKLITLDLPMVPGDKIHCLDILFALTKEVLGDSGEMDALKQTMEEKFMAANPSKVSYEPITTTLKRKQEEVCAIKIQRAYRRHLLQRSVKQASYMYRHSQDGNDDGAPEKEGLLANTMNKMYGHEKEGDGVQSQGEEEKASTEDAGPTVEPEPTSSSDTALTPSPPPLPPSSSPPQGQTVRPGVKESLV
protocol: whole-cell patch clamp, three pulse train
property: IC50 (µM)
Provide only the numeric value, understood in µM.

State its IC50 for this compound: Nc1nc2ccc(OC(F)(F)F)cc2s1 [riluzole]
3.98
